# protocol: Pharmacokinetic study in male rats
# Assay type: in vivo, rat
# experimental_setup: rat, plasma; male SD rats, oral 30 mg/Kg; read-out: Cmax in plasma

| chemical_structure | Cmax |
| --- | --- |
| O=C(O)Cc1csc(Nc2ccc(C(F)(F)F)cc2)n1 | ~109 µg/mL |

====

# protocol: Pharmacokinetic study in male rats
# Format: in vivo, rat
# experimental_setup: male, SD, rat, plasma, po, 30 mg/kg, male SD rats, oral 30 mg/Kg
# Protocol: Male SD rats were orally administered 30 mg/Kg of Activator-3. Blood and brain samples were collected at specified time points and were analyzed for Activator-3 using a LC-MS/MS method[64]–[66]. […] The human plasma protein binding was ~80% (data not shown). […] Male SD rats were orally administered with 30 mg/Kg of Activator-3. Blood and brain samples were collected at specified time points and were analyzed for Activator-3 using optimized LC-MS/MS method[64]–[66].

| chemical_structure | half-life, h |
| --- | --- |
| O=C(O)Cc1csc(Nc2ccc(C(F)(F)F)cc2)n1 | 4.11 |
